Recorded pIC50 by entry
Target: human DGKα (Homo sapiens, UniProt P23743)
Construct: TVMV protease cleavage site (C); Hexa-His (C); made in house; host or cells: Sf9 insect cells (baculovirus, Bac-to-Bac)
Sequence (P23743 with tags, fused parts or gaps): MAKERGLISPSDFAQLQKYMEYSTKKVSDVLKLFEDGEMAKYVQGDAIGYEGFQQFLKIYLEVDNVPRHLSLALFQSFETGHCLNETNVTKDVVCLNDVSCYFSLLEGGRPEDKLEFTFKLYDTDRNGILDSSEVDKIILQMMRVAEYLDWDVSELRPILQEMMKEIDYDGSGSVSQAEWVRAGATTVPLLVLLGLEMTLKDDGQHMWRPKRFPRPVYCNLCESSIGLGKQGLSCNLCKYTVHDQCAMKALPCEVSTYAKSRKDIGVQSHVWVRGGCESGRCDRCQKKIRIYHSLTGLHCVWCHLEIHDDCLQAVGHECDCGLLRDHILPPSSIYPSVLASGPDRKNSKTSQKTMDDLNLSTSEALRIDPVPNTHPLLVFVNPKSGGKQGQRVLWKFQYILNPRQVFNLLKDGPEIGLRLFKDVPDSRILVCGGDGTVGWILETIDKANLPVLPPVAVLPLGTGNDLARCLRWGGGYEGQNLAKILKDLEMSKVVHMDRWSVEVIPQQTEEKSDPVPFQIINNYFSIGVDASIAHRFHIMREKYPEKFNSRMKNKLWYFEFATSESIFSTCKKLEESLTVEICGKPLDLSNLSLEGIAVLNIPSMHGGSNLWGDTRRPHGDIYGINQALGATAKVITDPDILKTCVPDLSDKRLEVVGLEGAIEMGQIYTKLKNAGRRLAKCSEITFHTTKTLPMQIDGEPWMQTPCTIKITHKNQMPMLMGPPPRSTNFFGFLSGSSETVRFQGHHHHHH
Assay: DGKα LIPGLO assay (extruded liposome substrate), in vitro DGK inhibition
Assay type: biochemical
Conditions: liposome (LIPGLO) assay; read-out: DGKa LIPGLO IC50
A value of pIC50 is the negative decimal logarithm of a concentration given in moles per litre.

Please review the entries below; each comes with its answer.
compound	pIC50
C[C@@H]1CN(c2cc(=O)n(C)c3ccc(C#N)nc23)[C@@H](C)CN1C(c1ccc(Cl)cc1)c1ccc(Cl)cc1 [Example 25]	6.19
Cc1ccc(CCN2C[C@H](C)N(c3cc(=O)n(C)c4ccc(C#N)nc34)C[C@H]2C)cc1 [Example 633]	5.17
C[C@@H]1CN(c2cc(=O)n(C)c3ccc(C#N)nc23)[C@@H](C)CN1C(c1ccc(F)cc1)c1ccon1 (single isomer, unassigned) [Example 706]	5.89
COc1cc(F)c(C(C)N2C[C@H](C)N(c3cc(=O)n(C)c4ccc(C#N)nc34)C[C@H]2C)cc1F (stereo partly shown) [Example 1244]	6.18
C[C@@H]1CN(c2cc(=O)n(C)c3ccc(C#N)nc23)[C@@H](C)CN1C(c1ccc(OC(F)(F)F)cc1)c1ccc(F)cn1 (single isomer, unassigned) [Example 466]	6.72
C[C@@H]1CN(c2cc(=O)n(C)c3ccc(C#N)nc23)[C@@H](C)CN1Cc1c(Cl)cccc1C#N [Example 260]	5.42

Noted for CC(C)C(=O)C1CN(c2cc(=O)n(C)c3ccc(C#N)nc23)CCN1C(c1ccc(F)cc1)c1ccc(F)cc1 (single isomer, unassigned) [Example 86] : its pIC50 reads 5.13

Noted for C[C@@H]1CN(c2cc(=O)n(C)c3ccc(C#N)nc23)[C@@H](C)CN1C(c1ccc(F)cc1)c1ccccc1P(C)(C)=O (single isomer, unassigned) [Example 1288] : its pIC50 reads 3.54

###

Target: human DGKα (Homo sapiens)
Construct: TVMV protease cleavage site (C); Hexa-His (C); made in house; host or cells: Sf9 insect cells (baculovirus, Bac-to-Bac)
Test: DGKα LIPGLO assay (extruded liposome substrate), in vitro DGK inhibition
Type: biochemical
Conditions: liposome (LIPGLO) assay; read-out: DGKa LIPGLO IC50
quantity: IC50 (nM)
Numeric only. Scale: nM

Please review the entries below; each comes with its answer.
> print(dat)
                                   compound  readout.unit  endpoint.result
1  Cc1ccc(C(c2ccc(F)cc2)N2C[C@H](C)N(c3cc(=O)n(C)c4ccc(C#N)nc34)C[C@H]2C)cc1 (single isomer, unassigned) [Example 252]            nM              660
2  CC[C@@H]1CN(c2cc(=O)n(C)c3ccc(C#N)nc23)[C@@H](C)CN1C(CC1CCCCC1)c1ccc(OC(F)(F)F)cc1 (stereo partly drawn) [Example 1195]            nM              830

Now let's try a different one.
Noted for C[C@@H]1CN(c2cc(=O)n(C)c3ccc(C#N)nc23)[C@@H](C)CN1C(c1ccccc1)c1ccccc1 : its IC50 reads 930

###

Biological target: human DGKζ (Homo sapiens, UniProt Q13574)
Construct: TVMV protease cleavage site (C); Hexa-His (C); made in house; host or cells: Sf9 insect cells (baculovirus, Bac-to-Bac)
Sequence (Q13574 with tags, fused parts or gaps isoform Q13574-4): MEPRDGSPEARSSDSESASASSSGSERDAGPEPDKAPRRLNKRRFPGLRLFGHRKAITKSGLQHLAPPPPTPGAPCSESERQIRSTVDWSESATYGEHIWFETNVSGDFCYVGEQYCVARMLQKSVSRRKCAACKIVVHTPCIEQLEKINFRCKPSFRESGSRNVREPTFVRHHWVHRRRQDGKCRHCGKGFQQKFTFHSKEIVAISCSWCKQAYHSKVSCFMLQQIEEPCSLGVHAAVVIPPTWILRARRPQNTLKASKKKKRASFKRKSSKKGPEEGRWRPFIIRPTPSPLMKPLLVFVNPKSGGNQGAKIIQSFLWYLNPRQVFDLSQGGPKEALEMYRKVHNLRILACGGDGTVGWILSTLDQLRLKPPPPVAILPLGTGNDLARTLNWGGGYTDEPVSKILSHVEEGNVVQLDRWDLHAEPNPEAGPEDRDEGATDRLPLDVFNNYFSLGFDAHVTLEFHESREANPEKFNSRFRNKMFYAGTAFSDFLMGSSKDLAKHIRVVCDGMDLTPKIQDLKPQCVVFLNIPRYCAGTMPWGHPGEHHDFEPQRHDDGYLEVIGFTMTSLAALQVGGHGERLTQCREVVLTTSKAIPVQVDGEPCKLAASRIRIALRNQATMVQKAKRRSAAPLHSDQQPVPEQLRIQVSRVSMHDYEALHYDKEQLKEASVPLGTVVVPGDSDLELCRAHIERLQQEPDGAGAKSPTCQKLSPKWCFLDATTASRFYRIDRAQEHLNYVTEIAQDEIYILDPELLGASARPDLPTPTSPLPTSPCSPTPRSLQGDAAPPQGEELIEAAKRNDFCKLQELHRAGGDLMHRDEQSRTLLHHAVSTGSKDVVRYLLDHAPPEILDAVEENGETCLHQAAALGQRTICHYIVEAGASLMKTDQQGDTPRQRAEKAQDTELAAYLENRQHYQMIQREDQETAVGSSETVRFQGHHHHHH
Test: DGKζ LIPGLO assay (extruded liposome substrate), in vitro DGK inhibition
Assay type: biochemical
Conditions: liposome (LIPGLO) assay; read-out: DGKz LIPGLO IC50
quantity: pIC50
A value of pIC50 is the negative decimal logarithm of a concentration given in moles per litre.

> print(dat)
                                   molecule  endpoint.result
1  Cc1ccc(C(c2ccc(Cl)cn2)N2C[C@H](C)N(c3cc(=O)n(C)c4ccc(C#N)nc34)C[C@H]2C)cc1 (single isomer, unassigned) [Example 200]             6.70

Noted for C[C@@H]1CN(c2cc(=O)n(C)c3ccc(C#N)nc23)[C@@H](C)CN1C(c1cccc(F)c1)c1ccccn1 (single isomer, unassigned) [Example 374] : its pIC50 reads 5.42

Noted for CC(c1cccc2ncccc12)N1C[C@H](C)N(c2cc(=O)n(C)c3ccc(C#N)nc23)C[C@H]1C (single isomer, unassigned) [Example 639] : its pIC50 reads 4.74

Noted for COC(=O)C1CN(c2c(C#N)c(=O)n(C)c3ccc(C#N)nc23)CCN1C(c1ccc(F)cc1)c1ccc(F)cc1 (single isomer, unassigned) [Example 51] : its pIC50 reads 5.68

Noted for CC(c1cc(F)c(F)c(F)c1)N1C[C@H](C)N(c2cc(=O)n(C)c3ccc(C#N)nc23)C[C@H]1C (single isomer, unassigned) [Example 1241] : its pIC50 reads 6.22

###

Target: human DGKζ (Homo sapiens, UniProt Q13574)
Construct: TVMV protease cleavage site (C); Hexa-His (C); made in house; host or cells: Sf9 insect cells (baculovirus, Bac-to-Bac)
Test: DGKζ LIPGLO assay (extruded liposome substrate), in vitro DGK inhibition
Type: biochemical
Conditions: liposome (LIPGLO) assay; read-out: DGKz LIPGLO IC50
quantity: IC50 (µM)
Numeric only. Scale: µM

Please review the entries below; each comes with its answer.
> print(dat)
                                   molecule  endpoint.result
1  CC(c1ccc(P(C)(C)=O)cc1)N1C[C@H](C)N(c2c(C#N)c(=O)n(C)c3ccc(C#N)nc23)C[C@H]1C (single isomer, unassigned) [Example 1294]              220
2  CC[C@@H]1CN(c2cc(=O)n(C)c3ccc(C#N)nc23)[C@@H](C)CN1Cc1ccc(OC(F)(F)F)c(F)c1             0.61
3  CC[C@H]1CN(C(C)c2ccc(C3CC3)cc2)[C@H](CC)CN1c1cc(=O)n(C)c2ccc(C#N)nc12 (single isomer, unassigned) [Example 1355]            0.033
4  C[C@@H]1CN(c2cc(=O)n(C)c3ccc(C#N)nc23)[C@@H](C)CN1C(c1ccc(F)cc1)c1cncc(F)c1 (some centres unmarked) [Example 400]              3.2
5  Cn1c(=O)cc(N2CCN(C(c3ccc(F)cc3)c3ccc(F)cc3)C(C(=O)NC3CC3)C2)c2nc(C#N)ccc21 (single isomer, unassigned) [Example 47]              5.2
6  C[C@@H]1CN(c2cc(=O)n(C)c3ccc(C#N)nc23)[C@@H](C)CN1Cc1cccc2c1OCCN2C(=O)OC(C)(C)C               13

Now let's try a different one.
Given the molecule CCOc1cc(F)ccc1C(c1ccc(F)cc1)N1C[C@H](C)N(c2cc(=O)n(C)c3ccc(C#N)nc23)C[C@H]1C (single isomer, unassigned) [Example 230] and test system human DGKζ (Homo sapiens, UniProt Q13574), the measured IC50 is 0.49

###

Biological target: human DGKα (Homo sapiens, UniProt P23743)
Construct: TVMV protease cleavage site (C); Hexa-His (C); made in house; host or cells: Sf9 insect cells (baculovirus, Bac-to-Bac)
Test: DGKα LIPGLO assay (extruded liposome substrate), in vitro DGK inhibition
Assay type: biochemical
Details: liposome (LIPGLO) assay; read-out: DGKa LIPGLO IC50
quantity: IC50 (µM)
Numeric only. Scale: µM

> print(dat)
                                   molecule                             target.entity  endpoint.result
1  CC[C@H]1CN(C(C)c2cc(F)c(F)c(F)c2)[C@H](C)CN1c1cc(=O)n(C)c2ccc(C#N)nc12 (single isomer, unassigned) [Example 1383]  human DGKα (Homo sapiens, UniProt P23743)             0.97
2  Cn1c(=O)cc(N2CCN(C(c3ccc(F)cc3)c3ccc(F)cc3)C(CF)C2)c2nc(C#N)ccc21 (centres unmarked)  human DGKα (Homo sapiens, UniProt P23743)               17

Noted for C[C@@H]1CN(c2cc(=O)n(C)c3ccc(C#N)nc23)[C@@H](C)CN1C(c1ccc(OC(F)(F)F)cc1)c1ccc(F)cn1 (mixture of isomers) [Example 462] : its IC50 reads 0.14

Noted for Cc1cccc(C(c2ccc(F)cc2)N2C[C@H](C)N(c3cc(=O)n(C)c4ccc(C#N)nc34)C[C@H]2C)c1 (single isomer, unassigned) [Example 223] : its IC50 reads 0.28

Noted for CC[C@H]1CN(C(C)c2ccc(F)c(F)c2)[C@H](C)CN1c1cc(=O)n(C)c2ccc(C#N)nc12 (single isomer, unassigned) [Example 1140] : its IC50 reads 1.6
